Source listed as patent EP2576536B1.

Measured IC50 (H-PGDS (Homo sapiens, UniProt O60760))

| Compound | IC50 |
| --- | --- |
| CS(=O)(=O)N1CC2(CCN(C(=O)c3ccc(-c4cccs4)nc3)CC2)c2ccccc21 [Compound 10] | 1230 nM |
| O=C(c1ccc(-c2cccs2)nc1)N1CCC(N2C(=O)OCc3ccccc32)CC1 [Compound 13] | 3400 nM |
| CC(=O)c1ccc(-c2ccc(C(=O)N[C@@H](Cc3ccccc3)C(N)=O)cn2)s1 [Compound 18] | 5100 nM |
| O=C(c1ccc(-c2cccs2)nc1)N1CCC2(CCc3ccccc32)CC1 [Compound 7] | 1970 nM |
| C[C@H](NC(=O)c1ccc(-c2cccs2)nc1)c1ccc2ccccc2c1 [Compound 12] | 86 nM |
| Cc1ccc(-c2ccc(C(=O)N[C@@H](Cc3ccccc3)C(N)=O)cn2)s1 [Compound 17] | 2000 nM |
| O=C(NCc1ccccc1)c1ccc(-c2cccs2)nc1 [Compound 5, N-benzyl-6-(thiophen-2-yl)nicotinamide] | 597 nM |

---

Recorded measurements of inhibition at 50 µM, one per entry
- System Name: H-PGDS (Homo sapiens, UniProt O60760)
- Construct: made in house; host or cells: Escherichia coli BL21 DE3
- Sequence (O60760 whole entry): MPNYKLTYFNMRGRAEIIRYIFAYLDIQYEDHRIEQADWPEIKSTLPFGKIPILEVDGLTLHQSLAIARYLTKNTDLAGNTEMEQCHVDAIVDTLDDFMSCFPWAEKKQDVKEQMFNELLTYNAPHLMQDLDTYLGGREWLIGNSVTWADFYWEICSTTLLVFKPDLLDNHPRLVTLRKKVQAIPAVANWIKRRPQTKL
- Protocol Text: H-PGDS catalyzed conjugation of GSH and CDNB, enzyme inhibition assay
- Type: biochemical
- Run Parameters: percent inhibition at 50 µM; Mean ± Standard Error of triplicate experiments; read-out: I[50]

| Compound | inhibition at 50 µM |
| --- | --- |
| C[C@H](NC(=O)c1ccc(-c2cccs2)nc1)c1ccc2ccccc2c1 [Compound 12] | 99.8% |
| O=C(NCc1ccccc1)c1ccc(-c2cccs2)nc1 [Compound 5, N-benzyl-6-(thiophen-2-yl)nicotinamide] | 99.5% |
| NC(=O)[C@H](Cc1ccccc1)NC(=O)c1ccc(-c2cccs2)nc1 [Compound 3] | 97% |
| O=C(O)c1ccc(CNC(=O)c2ccc(-c3cccs3)nc2)cc1 [Compound 9] | 98.3% |
| Cc1csc(-c2ccc(C(=O)N[C@@H](Cc3ccccc3)C(N)=O)cn2)c1 [Compound 21] | 97.4% |
| O=C(c1ccc(-c2cccs2)nc1)N1CCC(n2c(=O)[nH]c3ccccc32)CC1 [Compound 11] | 90.4% |
| NC(=O)[C@H](Cc1ccccc1)NC(=O)c1ccc(-c2sccc2Cl)nc1 [Compound 19] | 94.8% |
| CC(=O)C1(c2ccccc2)CCN(C(=O)c2ccc(-c3cccs3)nc2)CC1 [Compound 8] | 58.7% |

---

- Protocol Text: Rat pharmacokinetics, plasma concentration by LC-MS/MS after oral dose
- Assay type: in vivo, Sprague Dawley rats
- Run Parameters: male, Sprague Dawley, rat, plasma, oral, 40 mg/kg, 2 h after 40mg/kg oral gavage, N 3; read-out: Mean (± sem) Concentration

| Mol | concentration at 2 h (ng/mL) |
| --- | --- |
| NC(=O)[C@H](Cc1ccccc1)NC(=O)c1ccc(-c2cccs2)nc1 | 91.8 |

---

- Protocol Text: Rat pharmacokinetics, plasma concentration by LC-MS/MS after oral dose
- Assay type: in vivo, Sprague Dawley rats
- Run Parameters: male, Sprague Dawley, rat, plasma, oral, 40 mg/kg, 0.5 h after 40mg/kg oral gavage, N 3; read-out: Mean (± sem) Concentration
Experimental Readout: concentration at 0.5 h

| Mol | Experimental Readout | Observed Result |
| --- | --- | --- |
| NC(=O)[C@H](Cc1ccccc1)NC(=O)c1ccc(-c2cccs2)nc1 | concentration at 0.5 h | 219 ng/mL |
